test: Metabolic (microsomal) stability assay, human liver microsomes (HLM); assay type: in vitro ADME; settings: predicted clearance as percent of liver blood flow, 1 μM
MEASURE NAME: HLM QH (%)

| STRUCTURE SMILES | READOUT UNIT | HLM QH |
| --- | --- | --- |
| C[C@H](Oc1cc(-c2cn(C3COC3)nn2)nc(-c2noc3c2CCC[C@@]32CCCc3sc(N)c(C#N)c32)n1)[C@@H]1CCCN1C | % | 28 |
| C[C@H](Oc1cc(-c2cncs2)nc(-c2noc3c2CCC[C@@]32CCCc3sc(N)c(C#N)c32)n1)[C@@H]1CCCN1C | % | 30 |
| C[C@H](Oc1cc([C@@H]2CCOC2)nc(-c2onc3c2CCC[C@@]32CCCc3sc(N)c(C#N)c32)n1)[C@@H]1CCCN1C | % | 37 |

I: C[C@@H]1CN(c2nc(-c3noc4c3CCC[C@@]43CCCc4sc(N)c(C#N)c43)nc(O[C@@H](C)[C@@H]3C[C@@H](F)CN3C)c2F)CC2(CC2)N1
II: C[C@H](Oc1cc(N2CCNC[C@@]23CCOC3)nc(-c2noc3c2CCC[C@@]32CCCc3sc(N)c(C#N)c32)n1)[C@@H]1CCCN1C
Q. Of I and II , which carries the smaller reported HLM QH figure? Pick one and reply with its label.
A. II
(II: 37%, I: 73%)

----------
tested on: SAS cells; assay: SAS CTG proliferation assay (120 h) (HNSCC, wt amplified); assay type: cell-based
MEASURE NAME: pIC50
When answering, recall that pIC50 equals minus log10 of the concentration in mol/L, and write that number alone.

# count of solved cases: 8
| COMPOUND | MEASURE NAME | OBSERVED VALUE |
| --- | --- | --- |
| C[C@H](Oc1cc(-n2ccc(C(=O)NC3(C)COC3)n2)nc(-c2noc3c2CCC[C@@]32CCCc3sc(N)c(C#N)c32)n1)[C@@H]1CCCN1C | pIC50 | 8.30 |
| C[C@H](Oc1cc(N2CCNC3(CCC3)C2)nc(-c2onc3c2CCC[C@@]32CCCc3sc(N)c(C#N)c32)n1)[C@@H]1CCCN1C | pIC50 | 5.31 |
| COCCNC(=O)c1ccn(-c2cc(O[C@@H](C)[C@@H]3CCCN3C)nc(-c3onc4c3CCC[C@@]43CCCc4sc(N)c(C#N)c43)n2)n1 | pIC50 | 7.35 |
| C[C@H](Oc1cc(N2CCNC2=O)nc(-c2noc3c2CCC[C@@]32CCCc3sc(N)c(C#N)c32)n1)[C@@H]1CCCN1C | pIC50 | 7.80 |
| C[C@H](Oc1cc(C2COCCO2)nc(-c2noc3c2CCC[C@@]32CCCc3sc(N)c(C#N)c32)n1)[C@@H]1CCCN1C (stereo partly shown) | pIC50 | 5.29 |
| C[C@@H]1CN(c2cc(O[C@@H](C)[C@@H]3CCCN3C)nc(-c3noc4c3CCC[C@@]43CCCc4sc(N)c(C#N)c43)n2)CCN1 | pIC50 | 5.80 |
| C[C@H](Oc1cc(N2C[C@H](C)N[C@@H](C)C2)nc(-c2onc3c2CCC[C@@]32CCCc3sc(N)c(C#N)c32)n1)[C@@H]1CCCN1C | pIC50 | 5.46 |
| C[C@H](NC(=O)c1ccn(-c2cc(O[C@@H](C)[C@@H]3CCCN3C)nc(-c3noc4c3CCC[C@@]43CCCc4sc(N)c(C#N)c43)n2)n1)c1ccccn1 | pIC50 | 8.00 |

Now look at this entry.
Q. GET /values?readout=pIC50&item= C[C@H](Oc1cc(N2C[C@H]3CN(C)C[C@H]3C2)nc(-c2noc3c2CCC[C@@]32CCCc3sc(N)c(C#N)c32)n1)[C@@H]1CCCN1C
A. 6.22

----------
tested on: AsPC-1 cells; experiment: AsPC-1 CTG proliferation assay (120 h) (pancreatic cancer, G12D); format: cell-based; details: Homo sapiens, ASPC1
MEASURE NAME: IC50 (nM)

| STRUCTURE SMILES | IC50 [nM] |
| --- | --- |
| CO[C@H]1CCN(C)[C@@H]1[C@H](C)Oc1cc(-n2ccc(C(=O)N[C@H]3CCOC3)n2)nc(-c2onc3c2CCC[C@@]32CCCc3sc(N)c(C#N)c32)n1 | 266 |
| C[C@H](Oc1cc(N2CCOC3(CC3)C2)nc(-c2noc3c2CCC[C@@]32CCCc3sc(N)c(C#N)c32)n1)[C@@H]1CCCN1C | 1550 |
| [2H]C([2H])([2H])N1C[C@H](F)C[C@H]1[C@H](C)Oc1cc(N2CCN(C)C3(CC3)C2)nc(-c2noc3c2CCC[C@@]32CCCc3sc(N)c(C#N)c32)n1 | 59 |

a: C[C@H](Oc1cc(-c2ccn(C3COC3)n2)nc(-c2noc3c2CCC[C@@]32CCCc3sc(N)c(C#N)c32)n1)[C@@H]1C[C@H](F)CN1C
b: C[C@H](Oc1nc(-c2noc3c2CCC[C@@]32CCCc3sc(N)c(C#N)c32)nc(N2C[C@H](C)NC3(CC3)C2)c1F)[C@@H]1C[C@@H](F)CN1C
Q. Compare the recorded IC50 of a and b ; state which is larger. Pick one and reply with its label.
A. a

----------
system: LOVO cells; assay: LOVO CTG proliferation assay (120 h) (CRC, G13D); format: cell-based; details: Homo sapiens, CTG 120 h
MEASURE NAME: IC50 (µM)

# count of solved cases: 2
| STRUCTURE SMILES | IC50, µM |
| --- | --- |
| C[C@H](Oc1cc(-c2ccccn2)nc(-c2noc3c2CCC[C@@]32CCCc3sc(N)c(C#N)c32)n1)[C@@H]1CCCN1C | 0.209 |
| C[C@H](Oc1cc(-n2cnc(C(=O)N(C)C)c2)nc(-c2noc3c2CCC[C@@]32CCCc3sc(N)c(C#N)c32)n1)[C@@H]1CCCN1C | 0.251 |

1: C[C@H](Oc1cc(-c2ccn(C[C@@H](C)O)n2)nc(-c2noc3c2CCC[C@@]32CCCc3sc(N)c(C#N)c32)n1)[C@@H]1CCCN1C
2: C[C@H](Oc1nc(-c2noc3c2CCC[C@@]32CCCc3sc(N)c(C#N)c32)cc(N2C[C@H](C)N[C@@H](C)C2)n1)[C@@H]1CCCN1C
3: C[C@H](Oc1nc(-c2noc3c2CCC[C@@]32CCCc3sc(N)c(C#N)c32)nc(N2C[C@H](C)NC3(CC3)C2)c1F)[C@@H]1C[C@@H](F)CN1C
4: C[C@H](Oc1cc(-c2ccn(Cc3ncco3)n2)nc(-c2noc3c2CCC[C@@]32CCCc3sc(N)c(C#N)c32)n1)[C@@H]1CCCN1C
Q. # desc sort on IC50 across 4 compounds Reply format: the labels, ordered as requested.
A. 2, 3, 4, 1
(2: 1.22 µM, 3: 0.136 µM, 4: 0.091 µM, 1: 0.058 µM)

----------
Some compounds, each annotated with its measured solubility at 24 h.
test: Solubility measurement (DMSO solution method), McIlvaine buffer pH 4.5 or 6.8; format: physicochemical; details: aqueous buffer, kinetic from dmso stock; McIlvaine buffer pH 4.5; DMSO stock diluted to 250 μM; 24 h shaking at ambient temperature; read-out: solubility pH 4.5

# count of solved cases: 5
| STRUCTURE SMILES | MEASURE NAME | OBSERVED VALUE |
| --- | --- | --- |
| C[C@H](Oc1cc(-c2ccn(C[C@H]3CCOC3)n2)nc(-c2noc3c2CCC[C@@]32CCCc3sc(N)c(C#N)c32)n1)[C@@H]1CCCN1C | solubility at 24 h | > 130 µg/mL |
| C[C@H](Oc1cc(-c2cnsc2)nc(-c2onc3c2CCC[C@@]32CCCc3sc(N)c(C#N)c32)n1)[C@@H]1CCCN1C | solubility at 24 h | 67 µg/mL |
| C[C@H](Oc1cc(-n2ccc(-c3cnccn3)n2)nc(-c2noc3c2CCC[C@@]32CCCc3sc(N)c(C#N)c32)n1)[C@@H]1CCCN1C | solubility at 24 h | < 1 µg/mL |
| C[C@H](Oc1cc(-n2ccc(C(=O)NC3COC3)n2)nc(-c2noc3c2CCC[C@@]32CCCc3sc(N)c(C#N)c32)n1)[C@@H]1CCCN1C | solubility at 24 h | 124 µg/mL |
| C[C@H](Oc1cc(N2CC[C@H](N3CCCC3)C2)nc(-c2noc3c2CCC[C@@]32CCCc3sc(N)c(C#N)c32)n1)[C@@H]1CCCN1C | solubility at 24 h | > 151 µg/mL |

Q. GET /values?readout=solubility at 24 h&item= CO[C@@H]1C[C@@H]([C@H](C)Oc2cc(-c3cnn(C)n3)nc(-c3noc4c3CCC[C@@]43CCCc4sc(N)c(C#N)c43)n2)N(C)C1
A. > 129 µg/mL

Q. GET /values?readout=solubility at 24 h&item= C[C@H](Oc1cc(N2CCN(C)C3(COC3)C2)nc(-c2onc3c2CCC[C@@]32CCCc3sc(N)c(C#N)c32)n1)[C@@H]1C[C@@H](F)CN1C
A. > 149 µg/mL
